- Tested on: Candida albicans
- procedure-details: Lowest concentration required to inhibit 90-100% of the visible growth of Candida albicans
- Type: functional
Below: a set of entries, each annotated with reported MIC.

molecule	MIC (µg/mL)
C/C=C1\NC(=O)[C@H]([C@H](C)O)NC(=O)[C@H](CCN)NC(=O)[C@H](CCCCN)NC(=O)[C@H](CC(=O)O)NC(=O)[C@@H](CCN)NC(=O)[C@@H](NC(=O)C[C@H](O)CCCCCCCCCCCCCCCCC)COC(=O)[C@H]([C@H](O)CCl)NC(=O)[C@H]([C@H](O)C(=O)O)NC1=O	5
C/C=C1\NC(=O)[C@H]([C@@H](C)O)NC(=O)[C@H](CCN)NC(=O)[C@H](CCCCN)NC(=O)[C@H](CC(=O)O)NC(=O)[C@@H](CCN)NC(=O)[C@@H](NC(=O)CC(O)CCCCCCCCCCCCCCCCC)COC(=O)[C@H]([C@H](O)CCl)NC(=O)[C@H]([C@H](O)C(=O)O)NC1=O (mixture of isomers)	10
C/C=C1\NC(=O)[C@H]([C@@H](C)O)NC(=O)[C@H](CCN)NC(=O)[C@H](CCCCN)NC(=O)[C@H](CC(=O)O)NC(=O)[C@@H](CCN)NC(=O)[C@@H](NC(=O)CC(O)CCCCCCCCCCCCCCC)COC(=O)[C@H]([C@H](O)CCl)NC(=O)[C@H]([C@H](O)C(=O)O)NC1=O (mixture of isomers)	1.25
